Hello, the source for this data is ChEMBL document CHEMBL3352014, in case you need it.

Target system: Transient receptor potential cation channel subfamily A member 1 (Rattus norvegicus)
Sequence (Q6RI86 whole entry): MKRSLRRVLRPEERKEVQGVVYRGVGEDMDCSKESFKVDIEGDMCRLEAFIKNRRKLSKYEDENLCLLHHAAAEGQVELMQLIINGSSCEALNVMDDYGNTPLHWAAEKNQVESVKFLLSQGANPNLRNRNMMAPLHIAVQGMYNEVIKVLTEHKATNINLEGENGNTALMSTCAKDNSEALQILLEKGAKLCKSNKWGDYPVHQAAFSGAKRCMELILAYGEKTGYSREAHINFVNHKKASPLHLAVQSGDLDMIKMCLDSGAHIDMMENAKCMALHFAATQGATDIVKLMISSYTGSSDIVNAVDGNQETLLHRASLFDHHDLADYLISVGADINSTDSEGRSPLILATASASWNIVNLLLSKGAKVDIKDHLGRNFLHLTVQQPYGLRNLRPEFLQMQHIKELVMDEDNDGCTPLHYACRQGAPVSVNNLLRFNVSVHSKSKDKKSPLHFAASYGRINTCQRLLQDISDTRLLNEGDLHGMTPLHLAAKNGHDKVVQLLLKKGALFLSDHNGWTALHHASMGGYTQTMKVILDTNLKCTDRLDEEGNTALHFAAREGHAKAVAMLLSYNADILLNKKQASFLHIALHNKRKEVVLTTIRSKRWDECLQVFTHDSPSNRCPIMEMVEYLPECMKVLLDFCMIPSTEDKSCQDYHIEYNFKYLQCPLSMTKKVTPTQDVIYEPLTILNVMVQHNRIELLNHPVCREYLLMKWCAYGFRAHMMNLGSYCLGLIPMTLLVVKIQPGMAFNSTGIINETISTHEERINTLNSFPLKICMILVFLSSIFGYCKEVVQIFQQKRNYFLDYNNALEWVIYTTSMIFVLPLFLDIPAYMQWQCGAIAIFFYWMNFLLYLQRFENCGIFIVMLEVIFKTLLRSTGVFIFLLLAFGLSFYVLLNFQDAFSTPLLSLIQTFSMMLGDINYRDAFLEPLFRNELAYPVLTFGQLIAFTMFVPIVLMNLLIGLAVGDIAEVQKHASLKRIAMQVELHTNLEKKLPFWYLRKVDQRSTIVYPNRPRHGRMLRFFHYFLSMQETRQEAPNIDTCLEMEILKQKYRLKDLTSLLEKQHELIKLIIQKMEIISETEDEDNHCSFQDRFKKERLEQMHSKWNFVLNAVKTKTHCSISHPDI
Assay info: Antagonist activity against rat TRPA1 expressed in HEK293 cells assessed as inhibition of AITC-induced increase in intracellular Ca2+ concentration by Fluo-4-AM dye based spectrofluorimetry
pIC50: −log10 of the molar value.
Readout kind: pIC50

# count of solved cases: 2
CC(C)=CCCC(C)CCO (racemic) :: < 4.00
CC(C)=CCC/C(C)=C\CO :: < 4.00

Moving on to another compound below.
Kindly note the recorded pIC50 for CC(C)=CCC/C(C)=C/COC(=O)c1cc(C(F)(F)F)cc(C(F)(F)F)c1 , which is < 4.00
